- method_summary: qHTS assay to test for compound auto fluorescence at 590 nm (red) in HEK293 cell free culture (AID 720683); further: on the % scale 0 is the no-effect control and ±100 the full control effect
- condition_description: cell-free medium autofluorescence, Ex540/Em590 red; series mostly up to 91.3 µM
Active and inactive are the calls of the source. The call rests on the fitted dose curve; in most records, active means well fitted curve in the direction sought with a large enough effect in the repeat runs; inconclusive means weak or mixed curves; inactive means flat fitted curve, though single readings scatter.
measurement_kind: fluorescence, % of fluorescent control

Sample records with fluorescence, % of fluorescent control:
molecule: CCOC(=O)c1ncn2c1CN(C)C(=O)c1c(I)cccc1-2
fluorescence, % of fluorescent control: inactive
--
molecule: CCOC(=O)C(Cl)Cc1cc(-n2nc(C)n(C(F)F)c2=O)c(F)cc1Cl (stereo not drawn)
fluorescence, % of fluorescent control: inactive
--
molecule: CC(C)(O)C(Cl)(Cl)Cl
fluorescence, % of fluorescent control: inactive
--
molecule: COC(=O)c1ccccc1CS(=O)(=O)NC(=O)Nc1nc(OC)cc(OC)n1
fluorescence, % of fluorescent control: inactive
--
molecule: CN(C)C(=O)Oc1cc(OC(=O)N(C)C)cc(C(O)CNC(C)(C)C)c1 (stereo not drawn)
fluorescence, % of fluorescent control: -0.0016% [at 18.6 µM] (inactive)

INPUT: Tell me the measured fluorescence, % of fluorescent control of `CS(=O)(=O)c1ccc(C(=O)C2C(=O)CCCC2=O)c(Cl)c1COCC(F)(F)F` , please.
OUTPUT: inactive

INPUT: Check `O=C(Cl)/C=C/C(=O)Cl` too.
OUTPUT: inactive

INPUT: Next: `OP(O)c1ccccc1`
OUTPUT: inactive

INPUT: Can you check `CCN[C@H](C)Cc1cccc(C(F)(F)F)c1` next?
OUTPUT: inactive

INPUT: Moving on to `CC[C@H](N)c1ccccc1`
OUTPUT: inactive

INPUT: Try the molecule `CN(C)C1CCCCC1`
OUTPUT: inactive

INPUT: Next record, please: CCCCCCC1CCOC1=O (stereo not drawn)
OUTPUT: inactive

INPUT: Do the same for `BrCc1ccc(Br)cc1` please
OUTPUT: inactive
